Experiment: Cytotoxicity determination in HepG2.2.15 cells (CCK-8)
Assay type: cell-based
Settings: human, 6 days treatment, CCK-8, highest concentration 100 uM
Define the label as T when CC50 at 6 days is strictly less than 10 µM and as F in all remaining cases.

Exam item: Lab log: compare recorded CC50 at 6 days with 10 µM; is it strictly lower for CCOC(=O)C1=C(C2CCN(c3cc(C)c(C(=O)O)nn3)CC2)NC(c2nccs2)=NC1c1ccc(F)c(F)c1Cl (single isomer, unassigned) ?
Marked response: T

Exam item: Lab log: compare recorded CC50 at 6 days with 10 µM; is it strictly lower for CCOC(=O)C1=C([C@H]2CC[C@H](c3ncc(C(=O)O)o3)CC2)NC(c2nccs2)=NC1c1ccc(F)c(F)c1Cl (single isomer, unassigned) ?
Marked response: F

Exam item: Lab log: compare recorded CC50 at 6 days with 10 µM; is it strictly lower for CCOC(=O)C1=C(C2CCN(c3cnc(OC)c(C(=O)O)n3)CC2)NC(c2nccs2)=NC1c1ccc(F)c(F)c1Cl (single isomer, unassigned) ?
Marked response: F

Exam item: Lab log: compare recorded CC50 at 6 days with 10 µM; is it strictly lower for CCOC(=O)C1=C(C2CCN(c3cnc(C(=O)O)c(C)n3)CC2)NC(c2nccs2)=NC1c1ccc(F)c(F)c1Cl (single isomer, unassigned) ?
Marked response: T

Exam item: Lab log: compare recorded CC50 at 6 days with 10 µM; is it strictly lower for CCOC(=O)C1=C(C2CCN(c3nc(OC)cc(C(=O)O)n3)CC2)NC(c2nccs2)=NC1c1ccc(F)c(F)c1Cl (single isomer, unassigned) ?
Marked response: T

Exam item: Lab log: compare recorded CC50 at 6 days with 10 µM; is it strictly lower for CCOC(=O)C1=C(C2CCN(c3ncc(C)c(C(=O)O)n3)CC2)NC(c2nccs2)=NC1c1ccc(F)cc1Cl (single isomer, unassigned) ?
Marked response: F

Exam item: Lab log: compare recorded CC50 at 6 days with 10 µM; is it strictly lower for CCOC(=O)C1=C([C@H]2CC[C@H](n3cc(C(=O)O)cn3)CC2)NC(c2nccs2)=NC1c1ccc(F)c(F)c1Cl (single isomer, unassigned) ?
Marked response: F

Exam item: Lab log: compare recorded CC50 at 6 days with 10 µM; is it strictly lower for CCOC(=O)C1=C(C2CCN(c3cccc(C(=O)O)n3)CC2)NC(c2nccs2)=NC1c1ccc(F)c(F)c1Cl (single isomer, unassigned) ?
Marked response: T

Exam item: Lab log: compare recorded CC50 at 6 days with 10 µM; is it strictly lower for CCOC(=O)C1=C(C2CCN(c3nc(C)cc(C(=O)O)n3)CC2)NC(c2nccs2)=NC1c1ccc(F)c(F)c1Cl (single isomer, unassigned) ?
Marked response: T

Exam item: Lab log: compare recorded CC50 at 6 days with 10 µM; is it strictly lower for COC(=O)C1=C(C2CCN(c3ncc(N4CCC(C(=O)O)CC4)cn3)CC2)NC(c2nccs2)=NC1c1ccc(F)cc1Cl (single isomer, unassigned) ?
Marked response: F

Exam item: Lab log: compare recorded CC50 at 6 days with 10 µM; is it strictly lower for COC(=O)C1=C(C2CCN(c3ncc(CC(=O)O)cn3)CC2)NC(c2nccs2)=NC1c1cccc(F)c1Cl (single isomer, unassigned) ?
Marked response: T

Exam item: Lab log: compare recorded CC50 at 6 days with 10 µM; is it strictly lower for CCOC(=O)C1=C([C@H]2CC[C@H](c3nc(C(=O)O)cs3)CC2)NC(c2nccs2)=NC1c1ccc(F)c(F)c1Cl (single isomer, unassigned) ?
Marked response: T

Exam item: Lab log: compare recorded CC50 at 6 days with 10 µM; is it strictly lower for COC(=O)C1=C([C@H]2CC[C@H](c3ncc(CC(=O)O)cn3)CC2)NC(c2nccs2)=NC1c1ccc(F)cc1Cl (single isomer, unassigned) ?
Marked response: F

Exam item: Lab log: compare recorded CC50 at 6 days with 10 µM; is it strictly lower for COC(=O)C1=C([C@H]2CC[C@H](c3nc(CC(=O)O)co3)CC2)NC(c2nccs2)=NC1c1ccc(F)cc1Br (single isomer, unassigned) ?
Marked response: F

Exam item: Lab log: compare recorded CC50 at 6 days with 10 µM; is it strictly lower for COC(=O)C1=C(C2CCN(c3ncc(C(=O)O)s3)CC2)NC(c2nccs2)=NC1c1cccc(F)c1Cl (single isomer, unassigned) ?
Marked response: F

Exam item: Lab log: compare recorded CC50 at 6 days with 10 µM; is it strictly lower for CCOC(=O)C1=C(C2CCN(c3ccc(C(=O)O)cc3)CC2)NC(c2nccs2)=NC1c1ccc(F)c(F)c1Cl (single isomer, unassigned) ?
Marked response: T

Exam item: Lab log: compare recorded CC50 at 6 days with 10 µM; is it strictly lower for COC(=O)C1=C(C2CCN(c3nc(C(F)(F)F)c(C(=O)O)s3)CC2)NC(c2nccs2)=NC1c1ccc(F)c(F)c1Cl (single isomer, unassigned) ?
Marked response: T

Exam item: Lab log: compare recorded CC50 at 6 days with 10 µM; is it strictly lower for CCOC(=O)C1=C(C2CCN(c3ncc(C(=O)O)s3)CC2)NC(c2nccs2)=NC1c1ccc(F)c(F)c1Cl (single isomer, unassigned) ?
Marked response: F

Exam item: Lab log: compare recorded CC50 at 6 days with 10 µM; is it strictly lower for COC(=O)C1=C(C2CCN(c3ncc(N)c(C(=O)O)n3)CC2)NC(c2nccs2)=NC1c1ccc(F)c(F)c1Cl (single isomer, unassigned) ?
Marked response: F

Exam item: Lab log: compare recorded CC50 at 6 days with 10 µM; is it strictly lower for CCOC(=O)C1=C(C2CCN(c3cc(C(=O)O)ncn3)CC2)NC(c2nccs2)=NC1c1ccc(F)c(F)c1Cl (single isomer, unassigned) ?
Marked response: F

Exam item: Lab log: compare recorded CC50 at 6 days with 10 µM; is it strictly lower for COC(=O)C1=C(C2CCN(c3ncc(C(=O)O)s3)CC2)NC(c2nccs2)=NC1c1cccc(F)c1Br (single isomer, unassigned) ?
Marked response: T

Exam item: Lab log: compare recorded CC50 at 6 days with 10 µM; is it strictly lower for COC(=O)C1=C([C@H]2CC[C@H](c3ncc(CC(=O)O)cn3)CC2)NC(c2nccs2)=NC1c1ccc(F)c(F)c1Cl (single isomer, unassigned) ?
Marked response: F
